Biological target: T1, HEK293T/hPD-L1 (Homo sapiens, UniProt Q9NZQ7)
T1 construct: expressed in transfected cells; host or cells: HEK293T
T1 sequence (Q9NZQ7 19-290): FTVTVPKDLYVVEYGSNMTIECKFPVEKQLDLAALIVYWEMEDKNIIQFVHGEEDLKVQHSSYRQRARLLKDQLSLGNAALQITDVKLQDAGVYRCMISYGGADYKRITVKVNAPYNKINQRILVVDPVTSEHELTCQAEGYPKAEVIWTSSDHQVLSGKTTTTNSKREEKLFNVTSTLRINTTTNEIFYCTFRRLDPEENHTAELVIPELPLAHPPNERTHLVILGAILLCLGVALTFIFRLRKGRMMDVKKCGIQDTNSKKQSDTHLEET
Test: Human PD-L1 binding activity assay of candidate anti-human PD-L1 nanobodies (flow cytometry)
Settings: nanobody 10 μg/mL
Quantity measured: Binding activity with human PD-L1

• h_Nb5: anti-human PD-L1 nanobody, VHH SEQ ID NO: 33 (protein, h_Nb5 Amino acid sequence of VHH) VHH: DVQLQESGGGAVQSGESLRLSCAASGRDLMFYDVAWFRQAPGKEREGVSYIRSSGTLTKYADSVKGRFTISRDNDKNTVSLQMNSLNPEDTAKYYCAARLQSATSHSDLREDEFNSWGQGTQVTVSS = good binding activity
• h_Nb13: anti-human PD-L1 nanobody, VHH SEQ ID NO: 48 (protein, h_Nb13 Amino acid sequence of VHH) VHH: DVQLQESGGGLVQPGGSLRLSCAASGSIFSINAMGWYRQAPGKSRELVAAITSGGSTNYADSVKGRFTISRDTAKNTVYLLMNSLEPEDTAVYYCNVERRRPPHYLSEYDFDWGQGTQVTVSS = good binding activity
• h_Nb26: anti-human PD-L1 nanobody, VHH SEQ ID NO: 56 (protein, h_Nb26 Amino acid sequence of VHH) VHH: DVQLQESGGGLVQPGGSLRLSCAAPGSIFRINAMGWYRQAPGKQRELVAAITSGGSTNYADSVQGRFTISRDNAKNTVYLQMNSLKPEDTAVYYCNVERRRPPHYYSDYDFDWGQGTQVTVSS = good binding activity
